Measured fold change of affinity of individual entries
# assayTarget: T1, Human CD137 ECD (human)
# T1 construct: also called 4-1BB
# T1 sequence (chain, as listed by the source limits assumed): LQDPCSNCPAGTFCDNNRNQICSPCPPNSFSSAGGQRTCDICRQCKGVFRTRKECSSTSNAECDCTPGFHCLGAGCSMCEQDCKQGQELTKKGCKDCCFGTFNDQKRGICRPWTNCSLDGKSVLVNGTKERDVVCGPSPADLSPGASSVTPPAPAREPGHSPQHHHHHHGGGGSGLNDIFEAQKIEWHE
# testProtocol: SPR, vs parent H183/L072
quantityKind: fold change of affinity (fold)

# binder, unitOfMeasure, observedValue
data = [
    ("dBBDu183H V100cS / dBBDu072L (antibody, name in Kabat numbering, V domains shown, as m1, one VH change) VH: QVQLVESGGGLVQPGRSLRLSCAASGFTFSNAWMHWVRQAPGKGLEWVAQIKDKGNAYAAYYAPSVKGRFTISRDDSKNSIYLQMNSLKTEDTAVYYCHYVHYASASTSLPAFGVDAWGQGTTVTVSS VL: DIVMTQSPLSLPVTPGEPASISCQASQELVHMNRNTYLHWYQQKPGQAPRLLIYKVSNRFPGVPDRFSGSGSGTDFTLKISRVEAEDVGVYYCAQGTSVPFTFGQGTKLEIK", "fold", 0.5),
    ("dBBDu183H V63E / dBBDu072L (antibody, name in Kabat numbering, V domains shown, as m1, one VH change) VH: QVQLVESGGGLVQPGRSLRLSCAASGFTFSNAWMHWVRQAPGKGLEWVAQIKDKGNAYAAYYAPSEKGRFTISRDDSKNSIYLQMNSLKTEDTAVYYCHYVHYASASTVLPAFGVDAWGQGTTVTVSS VL: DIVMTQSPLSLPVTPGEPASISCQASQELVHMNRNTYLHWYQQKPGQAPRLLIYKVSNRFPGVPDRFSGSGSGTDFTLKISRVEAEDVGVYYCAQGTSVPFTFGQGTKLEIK", "fold", 0.9),
]
